targetEntity: PKM2 (Homo sapiens)
methodDescription: PKM2 Assay (activation, LDH-coupled, absorbance at 340 nm)
Type: biochemical
conditionDetails: Table 5
observationType: AC50

{"molecule": "O=C(c1ccc(NS(=O)(=O)c2cccc3cccnc23)cc1)N1CCN(C2(c3ccccc3)CCC2)CC1", "resultValue": "< 100 nM"}
{"molecule": "O=C(c1ccc(NS(=O)(=O)c2cccc3cccnc23)cc1Cl)N1CCN(Cc2ccc(Cl)c(F)c2)CC1", "resultValue": "100 to 500 nM"}
{"molecule": "O=C(c1ccc(NS(=O)(=O)c2cccc3cccnc23)cc1F)N1CCN(Cc2cc(F)c(F)c(F)c2)CC1", "resultValue": "< 100 nM"}
{"molecule": "O=C(c1ccc(NS(=O)(=O)c2cccc3cccnc23)c(OC(F)(F)F)c1)N1CCN(CCCc2ccccc2)CC1", "resultValue": "500 to 1000 nM"}
{"molecule": "O=C(c1ccc(NS(=O)(=O)c2cccc3cccnc23)c(OC(F)(F)F)c1)N1CCN(C2(c3ccccc3)CC2)CC1", "resultValue": "500 to 1000 nM"}
{"molecule": "O=C(c1ccc(NS(=O)(=O)c2cccc3cccnc23)c(OC(F)(F)F)c1)N1CCN(C(=O)c2cscn2)CC1", "resultValue": "100 to 500 nM"}
{"molecule": "O=C(c1ccc(NS(=O)(=O)c2cccc3cccnc23)c(OC(F)(F)F)c1)N1CCN(Cc2cnccc2C(F)(F)F)CC1", "resultValue": "100 to 500 nM"}
{"molecule": "COc1cc(C(=O)N2CCN(C3(c4ccccc4)CC3)CC2)ccc1NS(=O)(=O)c1cccc2cccnc12", "resultValue": "100 to 500 nM"}
{"molecule": "O=C(c1ccc(NS(=O)(=O)c2cccc3cccnc23)c(OC(F)(F)F)c1)N1CCN(Cc2ncccc2C(F)(F)F)CC1", "resultValue": "1000 to 20000 nM"}
{"molecule": "COc1cc(C(=O)N2CCN(C(C)(C)c3ccccc3)CC2)ccc1NS(=O)(=O)c1cccc2cccnc12", "resultValue": "< 100 nM"}
{"molecule": "O=C(O[C@@H]1CCOC1)N1CCN(C(=O)c2ccc(NS(=O)(=O)c3cccc4cccnc34)c(OC(F)(F)F)c2)CC1", "resultValue": "1000 to 20000 nM"}
{"molecule": "O=C(c1ccc(NS(=O)(=O)c2cccc3cccnc23)cc1Cl)N1CCN(CC2CCCCO2)CC1 (centres unmarked)", "resultValue": "100 to 500 nM"}
{"molecule": "Cc1cnc(C(=O)N2CCN(C(=O)c3ccc(NS(=O)(=O)c4cccc5cccnc45)cc3)CC2)cn1", "resultValue": "500 to 1000 nM"}
{"molecule": "O=C(c1ccc(NS(=O)(=O)c2cccc3cccnc23)nc1)N1CCN(Cc2ccc(F)cc2)CC1", "resultValue": "100 to 500 nM"}

###

targetEntity: PKM2 (Homo sapiens, UniProt P14618)
Sequence (P14618 whole entry): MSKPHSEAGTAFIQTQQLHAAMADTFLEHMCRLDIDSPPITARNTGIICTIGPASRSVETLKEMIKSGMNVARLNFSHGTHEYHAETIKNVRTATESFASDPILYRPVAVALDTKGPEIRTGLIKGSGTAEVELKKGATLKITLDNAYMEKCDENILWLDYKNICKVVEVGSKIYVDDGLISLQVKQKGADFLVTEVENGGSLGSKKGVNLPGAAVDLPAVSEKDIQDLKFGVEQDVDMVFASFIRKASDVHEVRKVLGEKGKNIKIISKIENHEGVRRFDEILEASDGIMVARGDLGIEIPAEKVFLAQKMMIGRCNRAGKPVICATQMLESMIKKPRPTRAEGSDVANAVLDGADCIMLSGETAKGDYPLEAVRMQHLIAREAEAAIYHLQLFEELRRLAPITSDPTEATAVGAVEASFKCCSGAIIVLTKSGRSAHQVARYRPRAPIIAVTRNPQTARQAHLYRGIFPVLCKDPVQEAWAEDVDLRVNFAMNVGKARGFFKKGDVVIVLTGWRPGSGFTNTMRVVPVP
methodDescription: PKM2 Assay (activation, LDH-coupled, absorbance at 340 nm)
Type: biochemical
conditionDetails: Table 4

{"compound": "CC(c1c(F)ccc(F)c1F)N1CCN(C(=O)c2ccc(NS(=O)(=O)c3cccc4cccnc34)cc2)[C@@H](C)C1 (stereo partly shown)", "AC50": "100 to 500 nM"}
{"compound": "CC(c1ccc(Cl)c(F)c1)N1CCN(C(=O)c2ccc(NS(=O)(=O)c3cccc4cccnc34)cc2)[C@H](C)C1 (stereo partly shown)", "AC50": "100 to 500 nM"}
{"compound": "CC(c1ccc(F)cc1F)N1CCN(C(=O)c2ccc(NS(=O)(=O)c3cccc4cccnc34)cc2)[C@H](C)C1 (stereo partly shown)", "AC50": "< 100 nM"}
{"compound": "COc1ccccc1N1C[C@@H](C)N(C(=O)c2ccc(NS(=O)(=O)c3cccc4cccnc34)cc2)[C@@H](C)C1", "AC50": "< 100 nM"}
{"compound": "CC(C)[C@H]1CN(Cc2ccc(F)cc2)CCN1C(=O)c1ccc(NS(=O)(=O)c2cccc3cccnc23)cc1", "AC50": "1000 to 20000 nM"}
{"compound": "C[C@H]1CN(Cc2c(F)ccc(F)c2F)CCN1C(=O)c1ccc(NS(=O)(=O)c2cccc3cccnc23)cc1", "AC50": "100 to 500 nM"}
{"compound": "CC(C)OC(=O)N1[C@H](C)CN(C(=O)c2ccc(NS(=O)(=O)c3cccc4cccnc34)cc2)C[C@@H]1C", "AC50": "100 to 500 nM"}
{"compound": "C[C@H]1CN(Cc2cc(F)cc(F)c2)CCN1C(=O)c1ccc(NS(=O)(=O)c2cccc3cccnc23)cc1Cl", "AC50": "100 to 500 nM"}
{"compound": "C[C@@H]1CN(Cc2cc(F)c(F)cc2F)CCN1C(=O)c1ccc(NS(=O)(=O)c2cccc3cccnc23)cc1", "AC50": "< 100 nM"}
{"compound": "CC1CN(Cc2cc(F)cc(F)c2)CC(C)N1C(=O)c1ccc(NS(=O)(=O)c2cccc3cccnc23)cc1 (stereo not shown)", "AC50": "< 100 nM"}
{"compound": "C[C@H]1CN(C[C@H]2CCOC2)CCN1C(=O)c1ccc(NS(=O)(=O)c2cccc3cccnc23)cc1", "AC50": "100 to 500 nM"}
{"compound": "C[C@H]1CN(CC2CC2)CCN1C(=O)c1ccc(NS(=O)(=O)c2cccc3cccnc23)cc1", "AC50": "< 100 nM"}
{"compound": "C[C@H]1CN(Cc2ccc(Cl)c(F)c2)CCN1C(=O)c1ccc(NS(=O)(=O)c2cccc3cccnc23)cc1Cl", "AC50": "500 to 1000 nM"}
{"compound": "C[C@H]1CN(Cc2cc(F)cc(F)c2)CCN1C(=O)c1ccc(NS(=O)(=O)c2cccc3cccnc23)cc1", "AC50": "< 100 nM"}
{"compound": "C[C@@H]1CN(C(=O)OCCC2CCCC2)CCN1C(=O)c1ccc(NS(=O)(=O)c2cccc3cccnc23)cc1", "AC50": "< 100 nM"}
{"compound": "CC(c1cc(F)cc(F)c1)N1CCN(C(=O)c2ccc(NS(=O)(=O)c3cccc4cccnc34)cc2)[C@@H](C)C1 (stereo partly shown)", "AC50": "100 to 500 nM"}
{"compound": "O=C(c1ccc(NS(=O)(=O)c2cccc3cccnc23)cc1)N1CCN(CC2CC2)C[C@@H]1c1ccccc1", "AC50": "100 to 500 nM"}
{"compound": "C[C@@H]1CN(C(=O)OCCC2CCCCC2)CCN1C(=O)c1ccc(NS(=O)(=O)c2cccc3cccnc23)cc1", "AC50": "100 to 500 nM"}
{"compound": "C[C@H]1CN(CC2CCCC2)CCN1C(=O)c1ccc(NS(=O)(=O)c2cccc3cccnc23)cc1", "AC50": "< 100 nM"}
{"compound": "O=C(c1ccc(NS(=O)(=O)c2cccc3cccnc23)cc1)N1C2CCC1CN(CC1CC1)C2", "AC50": "100 to 500 nM"}
{"compound": "C[C@H]1CN(C(=O)c2ccc(NS(=O)(=O)c3cccc4cccnc34)cc2)CCN1C(=O)c1ccccn1", "AC50": "100 to 500 nM"}
{"compound": "CC(C)[C@H]1CN(C(C)c2ccc(F)cc2)CCN1C(=O)c1ccc(NS(=O)(=O)c2cccc3cccnc23)cc1 (stereo partly shown)", "AC50": "1000 to 20000 nM"}
{"compound": "CC[C@H]1CN(Cc2cc(F)cc(F)c2)CCN1C(=O)c1ccc(NS(=O)(=O)c2cccc3cccnc23)cc1", "AC50": "100 to 500 nM"}
{"compound": "CC(C)OC(=O)N1CCN(C(=O)c2ccc(NS(=O)(=O)c3cccc4cccnc34)cc2)[C@H](C)C1", "AC50": "< 100 nM"}
{"compound": "CC1CN(C(=O)c2ccccn2)CC(C)N1C(=O)c1ccc(NS(=O)(=O)c2cccc3cccnc23)cc1 (racemic)", "AC50": "1000 to 20000 nM"}
{"compound": "C[C@@H]1CN(C(=O)OC2CCOCC2)CCN1C(=O)c1ccc(NS(=O)(=O)c2cccc3cccnc23)cc1", "AC50": "100 to 500 nM"}
{"compound": "CC(c1ccc(F)cc1F)N1CCN(C(=O)c2ccc(NS(=O)(=O)c3cccc4cccnc34)cc2)[C@@H](C)C1 (stereo partly shown)", "AC50": "100 to 500 nM"}
{"compound": "CC(c1c(F)cc(F)cc1F)N1CCN(C(=O)c2ccc(NS(=O)(=O)c3cccc4cccnc34)cc2)[C@@H](C)C1 (stereo partly shown)", "AC50": "100 to 500 nM"}

###

targetEntity: PKM2 (Homo sapiens, UniProt P14618)
methodDescription: PKM2 Assay (activation, LDH-coupled, absorbance at 340 nm)
Type: biochemical
conditionDetails: Table 5
AC50 listing for selected compounds.

{"molecule": "O=C(c1ccncc1)N1CCN(C(=O)c2ccc(NS(=O)(=O)c3cccc4cccnc34)c(OC(F)(F)F)c2)CC1", "AC50": "100 to 500 nM"}
{"molecule": "CCOC(=O)N1CCN(C(=O)c2ccc(NS(=O)(=O)c3cccc4cccnc34)cn2)CC1", "AC50": "1000 to 20000 nM"}
{"molecule": "CC(C)(c1ccccc1F)N1CCN(C(=O)c2ccc(NS(=O)(=O)c3cccc4cccnc34)cc2)CC1", "AC50": "100 to 500 nM"}
{"molecule": "COc1cccc(F)c1CN1CCN(C(=O)c2ccc(NS(=O)(=O)c3cccc4cccnc34)c(OC(F)(F)F)c2)CC1", "AC50": "500 to 1000 nM"}
{"molecule": "O=C(c1ccc(NS(=O)(=O)c2cccc3cccnc23)cc1)N1CCN(C(=O)c2cc[nH]n2)CC1", "AC50": "100 to 500 nM"}
{"molecule": "CC(C)(c1cc(F)cc(F)c1)N1CCN(C(=O)c2ccc(NS(=O)(=O)c3cccc4cccnc34)cc2)CC1", "AC50": "< 100 nM"}
{"molecule": "O=C(c1ccc(NS(=O)(=O)c2cccc3cccnc23)c(OC(F)(F)F)c1)N1CCN(CCc2ccccc2)CC1", "AC50": "100 to 500 nM"}
{"molecule": "O=C(c1ccc(NS(=O)(=O)c2cccc3cccnc23)c(OC(F)(F)F)c1)N1CCN(CC2CC2)CC1", "AC50": "100 to 500 nM"}
{"molecule": "O=C(c1ccc(NS(=O)(=O)c2cccc3cccnc23)cc1)N1CCN(Cc2ccc(F)cc2)CC1", "AC50": "< 100 nM"}
{"molecule": "O=C(c1ccc(NS(=O)(=O)c2cccc3cccnc23)cc1)N1CCN(C(=O)c2cc(F)cc(F)c2)CC1", "AC50": "100 to 500 nM"}
